target: CatSper (Homo sapiens, UniProt Q7RTX7+Q86XQ3+Q8NEC5+Q96P56); construct: Motile spermatozoa were selected by a ‘swim-up’ procedure; endogenous in cells; host or cells: motile human spermatozoa (swim-up) from healthy donors; assay: Inhibition of P4-induced Ca2+ influx in human sperm (screen 2 inhibitors); format: cell-based; settings: IC50 (±SD), inhibition of P4-induced Ca2+ response; dose-response 90 µM to 0.3 nM
readout: IC50 (µM)
Lab book: enter the figure in µM, no units written.

Consider the following illustrative entries.
> print(dat)
                                   compound  recorded.value
1  C[C@]12CC[C@H](O)C[C@@H]1CC[C@@H]1[C@@H]2CC[C@]2(C)C(=O)CC[C@@H]12 [Epiandrosterone]           0.628
2  C[C@]12CC[C@H]3[C@@H](CCC4=CC(=O)CC[C@@]43C)[C@@H]1CC[C@@H]2C(=O)CO [Deoxycorticosterone]           0.523
3  C[C@]12CC[C@H]3[C@@H](CCC4=CC(=O)CC[C@@H]43)[C@@H]1CC[C@@H]2O [Nandrolone]           0.711
4  C[C@]12Cc3c[nH]nc3C[C@@H]1CC[C@@H]1[C@@H]2CC[C@@]2(C)[C@H]1CC[C@]2(C)O [Stanozolol]           0.194
5  CC(=O)[C@H]1CC[C@H]2[C@@H]3CC=C4C[C@@H](O)CC[C@]4(C)[C@H]3CC[C@]12C [Pregnenolone]           0.199

Below: the item to evaluate.
Prompt: Please look up its IC50: CC(=O)[C@H]1CC[C@H]2[C@@H]3C=CC4=CC(=O)CC[C@@]4(C)[C@@H]3CC[C@]12C [Dydrogesterone]
Completion: 0.245
